Reported values of GI50 for individual entries
System: HCT-116 colon
assay_protocol: NCI tumour cell line growth inhibition, 48 h

CCOC(=O)c1ccc(N2NC(=O)/C(=C/c3ccc([N+](=O)[O-])o3)C2=O)cc1    8.37 µM
CCCCN(CCCC)P(=O)(Oc1ccccc1)Oc1ccccc1    3.39 µM

// lookup GI50 | system=HCT-116 colon | key= `O=S(O)O.O=S(O)O.[Co].[NH2-].[NH2-].[NH2-].[NH2-]`
> 100 µM

// lookup GI50 | system=HCT-116 colon | key= CCOC(=O)Cc1csc(NC(=O)C(OC(=O)c2ccc(Cl)cc2)c2ccccc2)n1 (stereo unspecified)
29 µM

// lookup GI50 | system=HCT-116 colon | key= `COc1cc2c3c(n(CCCN=[N+]=[N-])c(=O)c2cc1OC)-c1ccccc1C3=O`
1.81 µM

// lookup GI50 | system=HCT-116 colon | key= `Cc1[nH]c2ccccc2c1CO`
15.2 µM
